Target: ATP-sensitive inward rectifier potassium channel 1 (Homo sapiens) (UniProt P48048)
Sequence (P48048 whole entry, looked up): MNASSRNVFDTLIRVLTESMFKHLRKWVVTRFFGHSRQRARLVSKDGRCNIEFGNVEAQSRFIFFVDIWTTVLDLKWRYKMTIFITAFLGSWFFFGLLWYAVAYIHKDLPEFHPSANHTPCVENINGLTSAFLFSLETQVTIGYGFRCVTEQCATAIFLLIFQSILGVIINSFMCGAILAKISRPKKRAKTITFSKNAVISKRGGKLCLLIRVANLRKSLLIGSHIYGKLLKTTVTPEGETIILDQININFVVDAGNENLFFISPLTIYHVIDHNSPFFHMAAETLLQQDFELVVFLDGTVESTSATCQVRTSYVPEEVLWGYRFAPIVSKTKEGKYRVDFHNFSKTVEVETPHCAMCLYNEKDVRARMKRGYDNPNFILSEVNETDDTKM
Test: ROMK channel inhibitor potency, dose response, cell-based, thallium flux, HEK293 (AID 2753)
Conditions: fluorescence
Calls of active or inactive are those of the source. How the calls were made is not given here.
Outcome codes: active, inactive

1. N#CC(C#N)=C1C=CC=CN1/C(=C\c1ccccc1Cl)C(=O)c1ccccc1 : active
2. O=C(Cn1nc(Cl)nc1Cl)c1cc2ccccc2oc1=O : active
3. CN(C)c1cc(O)c(C(=S)Nc2ccccc2)c(N(C)C)c1 : active
4. COc1ccc(C2(O)CCN(CCCCOc3ccccc3)CC2)cc1 : active
5. CCOC(=O)N1CCN(S(=O)(=O)c2ccc3c(c2)SCC(=O)N3)CC1 : inactive
6. Cc1ccccc1N1C(=S)NC2c3ccccc3OC1(C)C2C(=O)N(C)C (stereo unspecified) : active

* * *

Target: UniProt P48048
Test: ROMK channel inhibitor potency, dose response, cell-based, thallium flux, HEK293 (AID 2753)
Settings: fluorescence
Activity calls are given as the source filed them. How the calls were made is not given here.
Outcome codes: Yes = active, No = inactive

1) O=C1C=CC(=O)C(C2=C3C(=O)N(CCc4ccccc4)CC(=O)N3CCC2)=C1 : Yes
2) O=C(NCc1cccnc1)/C(=C/c1ccc(-c2cccc(Cl)c2)o1)S(=O)(=O)c1ccccc1 : No
3) CCCC(=O)OCCNc1cc(Sc2nccn2C)c2nonc2c1[N+](=O)[O-] : Yes
4) c1csc(CNc2ncnc3sccc23)c1 : No
5) N#C/C(=C\c1ccc(O)c(Br)c1)C(=O)NCc1ccccc1 : No
6) N#C/C(=C\c1ccncc1)c1nc2ccccc2[nH]1 : No
7) N#Cc1nc(-c2cccs2)oc1NCc1ccccc1 : Yes
8) CCCN1C(=O)/C(=C/c2ccncc2)SC1=S : Yes
9) CCCn1c(=S)[nH]c2cc(C(=O)N3CCCC(C(=O)OCC)C3)ccc2c1=O (stereo not drawn) : No
10) COC(=O)C(=Cc1ccccc1[N+](=O)[O-])C(=O)OC : Yes
11) CCCCNC(=O)/C(C#N)=C/c1ccc(F)cc1F : Yes
12) Cn1c(=O)c([N+](=O)[O-])c(Cl)c2ccccc21 : Yes
13) O=C1c2cccc3c([N+](=O)[O-])ccc(c23)C(=O)N1CC1CCCO1 (stereo not drawn) : No
14) O=C1C=C(c2ccccc2)C(=O)N1Nc1ccccc1 : Yes
15) CS(=O)(=O)n1nc(OC(=O)c2cc(Br)ccc2Cl)cc1N : No
16) CCOc1cc(C)c(Cl)cc1S(=O)(=O)NC1CC(C)(C)NC(C)(C)C1 : Yes
17) CC(C(=O)c1ccc(-c2ccccc2)cc1)[n+]1cccc(NC(=O)c2ccccc2)c1 (stereo not drawn) : Yes
18) O=[N+]([O-])c1ccc(N2CCCNCC2)c2ncccc12 : Yes
19) COc1ccc(-n2nc(C#N)c(Cl)cc2=O)cc1 : Yes
20) CC(=O)c1c(C)nc(-c2cccc([N+](=O)[O-])c2)n1O : No
21) CCOc1ccccc1N(CC(=O)N1CCOCC1)S(=O)(=O)c1ccc(SC)cc1 : Yes
22) Cn1nc(C(F)(F)F)c(C#N)c1N1CCN(c2ccccc2)CC1 : Yes
23) O=C(c1nnsc1S(=O)c1ccc(Cl)cc1)N1CCOCC1 (stereo not drawn) : Yes
